molecular target: MALAT1; conditions: ASO, A431, 0.005 µM
After the bases stand the sugars from the 5' end (letter, count) and the backbone: PS all phosphorothioate, else s phosphorothioate and o phosphodiester by linkage. Methylation of C is not given here. k = constrained ethyl (cEt); d = 2'-deoxy (DNA)
If the reported target mRNA inhibition equals or exceeds 20%, assign yes. If not, assign no.

Study these solved cases before continuing.
{"sequence": "TGTTATGTTCACCTGA (sugars k3 d10 k3, PS)", "category label": "yes"}
{"sequence": "GCCCCCCAGTTGCCGC (sugars k3 d10 k3, PS)", "category label": "no"}
{"sequence": "CTAAGATAGCAGCACA (sugars k3 d10 k3, PS)", "category label": "no"}
{"sequence": "CTCAAAGTCCAATGCA (sugars k3 d10 k3, PS)", "category label": "yes"}
{"sequence": "CGTGAAAACCCACTCT (sugars k3 d10 k3, PS)", "category label": "no"}
{"sequence": "ATATTTGCCCCTCCCC (sugars k3 d10 k3, PS)", "category label": "yes"}
{"sequence": "TCCAGGATTAATGTAG (sugars k3 d10 k3, PS)", "category label": "yes"}
{"sequence": "TCTGATCATAATCTCC (sugars k3 d10 k3, PS)", "category label": "yes"}

IN: Threshold query (target mRNA inhibition >= 20%) on GGTTACCAATAATTTC (sugars k3 d10 k3, PS)
OUT: yes

IN: Can you handle AGCTGAGGCTTCCCGG (sugars k3 d10 k3, PS) next?
OUT: no

IN: Can you handle GAAGAGCCAAGCACTC (sugars k3 d10 k3, PS) next?
OUT: no

IN: Can you handle ACCACCACCTGGAATG (sugars k3 d10 k3, PS) next?
OUT: yes

IN: Can you handle ACCCCTGACTTTCTGG (sugars k3 d10 k3, PS) next?
OUT: no

IN: Can you handle AGCACTTATCCCTAAC (sugars k3 d10 k3, PS) next?
OUT: yes

IN: Can you handle TGATAACGAAGAGATA (sugars k3 d10 k3, PS) next?
OUT: no

IN: Can you handle CAGCACGGGCTGTCTG (sugars k3 d10 k3, PS) next?
OUT: no

IN: Can you handle CCCACCAAAGACCTCG (sugars k3 d10 k3, PS) next?
OUT: yes

----------
molecular target: DGAT2; settings: ASO, HepG2, 0.12 µM
After the bases stand the sugars from the 5' end (letter, count) and the backbone: PS all phosphorothioate, else s phosphorothioate and o phosphodiester by linkage. Methylation of C is not given here. e = 2'-O-(2-methoxyethyl) (MOE); d = 2'-deoxy (DNA)
parameter measured: target mRNA inhibition (%)
Answers are plain numbers, in %.

{"sequence": "GGCTTGGAGTAGGGCACCAG (sugars e5 d10 e5, PS)", "target mRNA inhibition / %": 56}
{"sequence": "AGTTTCGGACCCACTGTGAC (sugars e5 d10 e5, PS)", "target mRNA inhibition / %": 63}
{"sequence": "CCACTGGAGCACTGAGATGA (sugars e3 d14 e3, PS)", "target mRNA inhibition / %": 62}
{"sequence": "CGCGCAGGACCCCGGAGTAG (sugars e2 d13 e5, PS)", "target mRNA inhibition / %": 67}
{"sequence": "GCAAATAGTCTATGGTGTCC (sugars e5 d10 e5, PS)", "target mRNA inhibition / %": 60}
{"sequence": "GCCTGGGAACTTCTTGCTCA (sugars e5 d10 e5, PS)", "target mRNA inhibition / %": 47}

Parameters: items (list). Returns: target mRNA inhibition for each item.
1. CTTCTGGACCCATCGGCCCC (sugars e5 d10 e5, PS)
2. CATTGCCACTCCCATTCTTT (sugars e3 d14 e3, PS)
3. TGCAGCCTGGACAAGTCCTG (sugars e5 d10 e5, PS)
4. TAGCATTGCCACTCCCATTC (sugars e3 d14 e3, PS)
5. ATGAGGGTCTTCATGGCTGA (sugars e5 d10 e5, PS)
6. AGATGCCACTTCATCAAGGC (sugars e5 d10 e5, PS)
7. GGAGCTCAGAGACTCAGCCG (sugars e3 d14 e3, PS)

OUT:
30
46
67
68
7
24
81

IN: Can you look up the measured target mRNA inhibition of TACAAAAGTCTGACATGGTG (sugars e5 d10 e5, PS) for me?
OUT: 40

----------
target: ANGPTL2; details: ASO, 5 µM
After the bases stand the sugars from the 5' end (letter, count) and the backbone: PS all phosphorothioate, else s phosphorothioate and o phosphodiester by linkage. Methylation of C is not given here. l = locked nucleic acid (LNA); d = 2'-deoxy (DNA)
Provide the reported target mRNA inhibition of each item.
Numbers only, in %.

Record excerpt, results attached:
{"sequence": "CCAGAGCTAATCAGTGG (sugars l2 d13 l2, PS)", "target desc": "ANGPTL2", "parameter measured": "target mRNA inhibition", "measured value": 39.4}
{"sequence": "AAGAAGTTAACAGAGCCATC (sugars l1 d15 l4, PS)", "target desc": "ANGPTL2", "parameter measured": "target mRNA inhibition", "measured value": 42.1}
{"sequence": "CAAAGGCATTTCAGTTCC (sugars l1 d14 l3, PS)", "target desc": "ANGPTL2", "parameter measured": "target mRNA inhibition", "measured value": 56.8}
{"sequence": "CTAGTGTGCTCTGGAGC (sugars l1 d14 l2, PS)", "target desc": "ANGPTL2", "parameter measured": "target mRNA inhibition", "measured value": 36.6}
{"sequence": "GTCATAGAAACTACCCC (sugars l1 d13 l3, PS)", "target desc": "ANGPTL2", "parameter measured": "target mRNA inhibition", "measured value": 29.1}

Parameters: items (list). Returns: target mRNA inhibition for each item.
1. TTGATGATGCGGTTGTAG (sugars l3 d13 l2, PS)
2. TCCGGTAATGGCCCC (sugars l1 d12 l2, PS)
3. GTTATGCCCATTTCTAGG (sugars l1 d15 l2, PS)
4. CATTTTGAGATTCCCCCA (sugars l1 d15 l2, PS)
5. ACCCTCCATCCTTCACC (sugars l3 d12 l2, PS)
6. CTGGGTTATATTCTCTT (sugars l2 d12 l3, PS)

OUT:
1: 70.7; 2: 34; 3: 47.7; 4: 22.1; 5: 38.9; 6: 39.4

----------
target: DGAT2; conditions: ASO, HepG2, 2.5 µM
After the bases stand the sugars from the 5' end (letter, count) and the backbone: PS all phosphorothioate, else s phosphorothioate and o phosphodiester by linkage. Methylation of C is not given here. e = 2'-O-(2-methoxyethyl) (MOE); d = 2'-deoxy (DNA)
Provide the reported target mRNA inhibition of each item.

Record excerpt, results attached:
{"sequence": "TCTGCGCGATTCACTGAGGA (sugars e5 d10 e5, PS)", "target desc": "DGAT2", "parameter measured": "target mRNA inhibition", "measured value": "64%"}
{"sequence": "CAGAATGAGACAGGCAGCCC (sugars e5 d10 e5, PS)", "target desc": "DGAT2", "parameter measured": "target mRNA inhibition", "measured value": "37%"}
{"sequence": "CAGCAGTCTGCCTGATTCCC (sugars e5 d10 e5, PS)", "target desc": "DGAT2", "parameter measured": "target mRNA inhibition", "measured value": "66%"}
{"sequence": "CTCCTGTTTGATGGGTAAAA (sugars e5 d10 e5, PS)", "target desc": "DGAT2", "parameter measured": "target mRNA inhibition", "measured value": "90%"}
{"sequence": "AATGGGAATGGTATCGCACT (sugars e5 d10 e5, PS)", "target desc": "DGAT2", "parameter measured": "target mRNA inhibition", "measured value": "58%"}
{"sequence": "CTTTGAAATCCAATGCACCT (sugars e5 d10 e5, PS)", "target desc": "DGAT2", "parameter measured": "target mRNA inhibition", "measured value": "65%"}
{"sequence": "TGGACAAGTCATCTTCCAGC (sugars e5 d10 e5, PS)", "target desc": "DGAT2", "parameter measured": "target mRNA inhibition", "measured value": "52%"}
{"sequence": "CACCATTTTCACAAGGAGAA (sugars e5 d10 e5, PS)", "target desc": "DGAT2", "parameter measured": "target mRNA inhibition", "measured value": "86%"}

Parameters: items (list). Returns: target mRNA inhibition for each item.
1. GACACACAATATCCATGGAC (sugars e5 d10 e5, PS)
2. GGCCCAGATTTAGCCACCAC (sugars e5 d10 e5, PS)

OUT:
1: 72%; 2: 51%

Parameters: items (list). Returns: target mRNA inhibition for each item.
1. TGTACACTTCATTCTCTCCA (sugars e5 d10 e5, PS)
2. GCCCTCCTCGAAGATCACCT (sugars e5 d10 e5, PS)
3. TATTCATCTTTCCAGATCCG (sugars e5 d10 e5, PS)

OUT:
1. 41%
2. 37%
3. 66%

Parameters: items (list). Returns: target mRNA inhibition for each item.
1. GAATGGTGTGTTGGCTCCCT (sugars e5 d10 e5, PS)
2. CTTGTGCTTGTCGAAGAGCT (sugars e5 d10 e5, PS)
3. TTGTACACTTCATTCTCTCC (sugars e5 d10 e5, PS)
4. AGGCACAGAAAAGTGAGGCT (sugars e5 d10 e5, PS)
5. ACAACTCTCTTGTTGGGAGG (sugars e5 d10 e5, PS)
6. TGGAGCTCAGAGACTCAGCC (sugars e5 d10 e5, PS)
7. TCAGGACCTCAGGGCTGGCC (sugars e5 d10 e5, PS)

OUT:
54%
33%
37%
75%
64%
19%
64%
